Target: UniProtKB P35563
Sequence (P35563 whole entry): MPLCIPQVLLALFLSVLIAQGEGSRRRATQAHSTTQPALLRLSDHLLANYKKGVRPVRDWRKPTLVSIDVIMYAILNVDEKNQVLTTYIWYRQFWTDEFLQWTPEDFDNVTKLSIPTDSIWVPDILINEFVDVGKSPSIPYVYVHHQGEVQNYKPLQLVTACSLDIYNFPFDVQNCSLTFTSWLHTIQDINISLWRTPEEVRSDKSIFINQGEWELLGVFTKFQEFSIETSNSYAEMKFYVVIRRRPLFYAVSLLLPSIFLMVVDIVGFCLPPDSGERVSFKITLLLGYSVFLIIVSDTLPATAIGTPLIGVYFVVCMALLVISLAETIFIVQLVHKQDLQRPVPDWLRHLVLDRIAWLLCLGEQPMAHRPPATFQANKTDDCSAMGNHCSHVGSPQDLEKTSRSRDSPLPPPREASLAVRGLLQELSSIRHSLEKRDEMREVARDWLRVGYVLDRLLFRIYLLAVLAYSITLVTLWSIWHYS
Assay: Displacement of [3H]LY278584 from 5HT3 receptor in rat cortical homogenate
pKi: −log10 of the molar value.
Property: pKi; scope: individual molecules
assay-readout: pKi

| smiles-text | system-under-test | recorded-number |
| --- | --- | --- |
| O=C(CN1CCN(c2nc3cc(F)ccc3n3cccc23)CC1)NO | UniProtKB P35563 | 8.66 |
| CS(=O)(=O)NC(=O)CN1CCN(c2nc3cc(F)ccc3n3cccc23)CC1 | UniProtKB P35563 | 6.61 |
| N[C@H](CN1CCN(c2nc3cc(F)ccc3n3cccc23)CC1)C(=O)O | UniProtKB P35563 | 8.92 |
| c1ccc2nc(N3CCNCC3)ccc2c1 | UniProtKB P35563 | 9.02 |
| O=C(O)CN1CCN(c2nc3cc(O)ccc3n3cccc23)CC1 | UniProtKB P35563 | 8.68 |
| N[C@@H](CN1CCN(c2nc3cc(F)ccc3n3cccc23)CC1)C(=O)O | UniProtKB P35563 | 8.55 |
| O=C(O)CN1CCN(c2nc3cc(F)ccc3n3cccc23)CC1 | UniProtKB P35563 | 7.93 |
| O=C(O)CN1CCN(c2ccc3ccccc3n2)CC1 | UniProtKB P35563 | 7.95 |
